Assay Metric: melting point

Consider the following illustrative entries.
Would you mind telling me what melting point value was observed for CSc1nc(-c2ccc(F)cc2)c(CCN2CCC(n3nnc4cc(F)ccc43)CC2)[nH]1 [C-03] ?
223 to 224 °C

Tell me the measured melting point of Cc1nc(-c2ccc(F)cc2)c(CCN2CCC(n3nnc4cc(F)ccc43)CC2)s1 [B-29] , please.
145 to 146 °C

Continuing:
// melting point lookup, key: Cc1nc(-c2ccc(F)cc2)c(CCN2CCC(c3c[nH]c4ccccc34)CC2)s1 [B-11]
165 to 167 °C
